ASSAY_REMARKS: Quantitative High-Throughput drug screen in 47 multiple myeloma cell lines against the NCATS MIPE library collection: L363_DSMZ cell viability assay (AID 1918984); also: nearly all actives have a fitted effect of over 40% in size
DETAILS: L363 myeloma viability, CellTiter-Glo ATP luminescence, 48 h; series mostly up to 45.8 µM
Records with an inconclusive call do not appear. Calls of active or inactive are those of the source. Calls follow the shape of the dose curve; as a rule, active = well fitted cell-killing curve with a large enough effect; inconclusive = small, poorly fitted or top-dose-only effect, or effect the other way; inactive = no such curve, though single readings can be large or run the other way.
Thanks in advance; please answer with one of these: active, inactive

# count of solved cases: 3
- CN1CCN(c2ccc([N+](=O)[O-])c3no[n+]([O-])c23)CC1: active
- CC(=O)N(C)c1cccc(-c2ccnc3c(C(=O)c4cccs4)cnn23)c1: inactive
- C1=C2CCCN[C@H]2[C@@H]2C[C@H]1[C@@H]1CCCCN1C2: inactive

Input line: Write down the call the test reported for this molecule. Item: O=C(Nc1ccncc1)C(=O)c1cn(Cc2ccc(Cl)cc2)c2ccccc12
Output line: active

* * *

ASSAY_REMARKS: qHTS drug screen for cell cycle checkpoint inhibitors in PARPi-resistant BRCA-mutant ovarian cancer cell lines. (AID 1963452)
DETAILS: PEO1/OlaR viability, CellTiter-Glo luminescence, 96 h; measured here: PEO1 parental Z-AUC; stronger effect = lower value
Assignment: determine reported Z-AUC for the given molecules.
Numbers only.

Worked examples follow.
• CN1CCN(c2ccc([N+](=O)[O-])c3no[n+]([O-])c23)CC1 = 1.82
• C#CC1(O)CCC2C3CCC4=CC(=O)CCC4(C)C3CCC21C (stereo not given) = 0.372
• COc1ccc(N(C(=O)Oc2c(C)cccc2C)c2ccnc(Nc3ccc(N4CCN(C)CC4)cc3)n2)c(OC)c1 = 0.364
• O=S(=O)(F)Cc1ccccc1 = -0.355

Switching to the query record.
Input line: # Z-AUC lookup, item O=c1cccc2n1CC1CNC[C@H]2C1
Output line: 1.98

* * *

TESTED_ON: ATPase family AAA domain-containing protein 5 (Homo sapiens)
ASSAY_REMARKS: Validation screen for small molecules that inhibit ELG1-dependent DNA repair in human embryonic kidney (HEK293T) cells expressing luciferase-tagged ELG1 (AID 493107);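 also: cells co-treated with the DNA-damaging agent 5-fluorouridine alongside compound; inhibitors lower the ELG1-luciferase luminescence signal; nearly all actives have a fitted effect of over 70% in size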
DETAILS: HEK293T ELG1-luciferase level, luminescence, 5-fluorouridine co-treatment, 16 h; series mostly up to 46.1 µM
Records with an inconclusive call do not appear. Activity calls are given as the source filed them. Calls follow the shape of the dose curve; as a rule, active = well fitted inhibition curve with a large enough effect; inconclusive = small, poorly fitted or top-dose-only effect, or effect the other way; inactive = flat fitted curve, though single readings scatter.
ATTRIBUTE_MEASURED: outcome

* C=CCN1CC[C@]23CCCCC2[C@H]1Cc1ccc(O)cc13 (stereo partly drawn) | inactive
* NC(CCP(=O)(O)O)C(=O)O (stereo not drawn) | inactive
* CNCCc1ccc(O)c(O)c1 | inactive

* * *

ASSAY_REMARKS: Quantitative High-Throughput drug screen in 47 multiple myeloma cell lines against the NCATS MIPE library collection: Karpas620_DSMZ cell viability assay (AID 1918959); also: nearly all actives have a fitted effect of over 30% in size; also: potency is read from the fitted curve at half-maximal effect
DETAILS: Karpas620 myeloma viability, CellTiter-Glo ATP luminescence, 48 h; series mostly up to 45.8 µM
Results filed as inconclusive are left out. Activity calls are given as the source filed them. Calls follow the shape of the dose curve; as a rule, active = well fitted cell-killing curve with a large enough effect; inconclusive = small, poorly fitted or top-dose-only effect, or effect the other way; inactive = no such curve, though single readings can be large or run the other way.
ATTRIBUTE_MEASURED: Potency

- CC1=NN=C(c2ccc(N)cc2)c2cc3c(cc2C1)OCO3: 20.9 µM (active)
- COC1=C[C@@H]2[C@@H]3Cc4ccc(OC)c(O)c4[C@]2(CCN3C)CC1=O: 20.9 µM (active)
- O=c1[nH]c2ccc(Cl)cc2c(N[C@@H]2CN3CCC2CC3)c1-c1nc2ccccc2[nH]1: 5.9 µM (active)
- C[C@]12COC(=O)C[C@@H]1CC[C@@H]1[C@H]2CC[C@@]2(C)[C@H]1CC[C@]2(C)O: inactive
- COc1ccc(N(C(=O)Oc2c(C)cccc2C)c2ccnc(Nc3ccc(N4CCN(C)CC4)cc3)n2)c(OC)c1: 2.64 µM (active)
- CC(=O)OCC1=C(C(=O)O)N2C(=O)[C@@H](N)[C@@H]2SC1: 10.5 µM (active)
- CC1(N2CCC(n3c([C@@H]4CCCNC4)nc4ccccc43)CC2)CCCCCCC1: 9.35 µM (active)
- COc1ccc2c(c[n+](C)c3c4cc5c(cc4ccc23)OCO5)c1OC: 5.9 µM (active)

Look at each compound and report its Potency.
1. COc1cc([C@@H]2c3cc4c(cc3[C@@H](O)C3COC(=O)C32)OCO4)cc(OC)c1O (some centres undefined)
2. CCOC(=O)c1c(C(C#N)=CN)c2ccc(Cl)c(Cl)c2n1C

Output line:
1: 0.0187 µM (active); 2: inactive

Look at each compound and report its Potency.
1. C=C[C@@H]1CN2CCC1C[C@@H]2[C@@H](O)c1ccnc2ccccc12 (some centres undefined)
2. C=C[C@@H]1CN2CCC1C[C@H]2[C@H](O)c1ccnc2ccccc12 (some centres undefined)
3. CCCCCC[C@H]1C(=O)O[C@H](C)[C@H](NC(=O)c2cccc(NC=O)c2O)C(=O)O[C@@H](C)[C@@H]1OC(=O)CC(C)C
4. CCCN1CCO[C@@H]2c3cc(O)ccc3OC[C@@H]21
5. C[C@@H]1O[C@@H](O[C@@H]2C=C3CC[C@@H]4[C@@H](CC[C@]5(C)[C@H](c6ccc(=O)oc6)CC[C@@]45O)[C@@]3(C)CC2)[C@H](O)[C@H](O)[C@H]1O
6. C[C@]12Cc3cn[nH]c3C[C@@H]1CC[C@@H]1[C@H]2CC[C@@]2(C)[C@H]1CC[C@]2(C)O

Output line:
1. 5.26 µM (active)
2. inactive
3. 0.935 µM (active)
4. inactive
5. 0.0209 µM (active)
6. inactive

Look at each compound and report its Potency.
1. N#C[C@H](O[C@@H]1O[C@H](CO[C@@H]2O[C@H](CO)[C@H](O)[C@H](O)[C@H]2O)[C@H](O)[C@H](O)[C@H]1O)c1ccccc1
2. CC=C(C)C(=O)O[C@H]1C(C)=C2[C@@H]3OC(=O)[C@@](C)(O)[C@@]3(O)[C@@H](OC(=O)CCC)C[C@](C)(OC(C)=O)[C@@H]2[C@@H]1OC(=O)CCCCCCC
3. O=C(NCC1CCOCC1)c1cnc(Nc2ccc(Cl)cc2Cl)nc1C(F)(F)F
4. CC[C@@]1(O)C(=O)OCc2c1cc1n(c2=O)Cc2cc3ccccc3nc2-1
5. c1ccc2c(CN3CCNCC3)cccc2c1
6. CC(O)=C(C#N)C(=O)Nc1cc(Br)ccc1Br
7. c1cc2c(cc1[C@H]1OC[C@H]3[C@H]1CO[C@H]3c1ccc3c(c1)OCO3)OCO2
8. COc1ccc2c(c1)CN(C)CC2c1ccc(Cl)c(Cl)c1 (centres undefined)

Output line:
9.35 µM (active)
inactive
5.26 µM (active)
0.418 µM (active)
inactive
5.26 µM (active)
inactive
16.6 µM (active)

Look at each compound and report its Potency.
1. CCNC(=O)C[C@@H]1N=C(c2ccc(Cl)cc2)c2cc(OC)ccc2-n2c(C)nnc21
2. O=[N+]([O-])c1ncc[nH]1
3. O=C1C=CC[C@@H]2[C@H]3CCCN4CCC[C@@H](CN12)[C@@H]34

Output line:
1. 1.05 µM (active)
2. inactive
3. inactive

Look at each compound and report its Potency.
1. C[C@@H]1CC[C@H]2[C@@H](C)C(=O)O[C@@H]3O[C@@]4(C)CC[C@H]1[C@]32OO4
2. C[C@]12CC[C@H](O)CC1=CC[C@H]1[C@H]3CCC(=O)[C@@]3(C)CC[C@@H]12

Output line:
5.9 µM (active)
16.6 µM (active)
